B1: SETD8 (parent)
chain: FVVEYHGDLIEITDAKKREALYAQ

variants of: B1; experiment: protein stability index of a GFP-peptide fusion (GPS, HEK-293T) (PSI 1-6); higher = more stable; settings: c terminus: a fixed tail appended;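 also: lentivirally expressed fusions sorted by FACS into six bins by GFP to DsRed ratio, PSI derived from sequencing read proportions per bin multiplied by bin number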
The following variants are shown together with reported protein stability index values.
Lab note: jot down the number only; don't add units.

Study these solved cases before continuing.
• FVVEYHGDLIEITDMKKREALYAQ [A15M] = 2.69
• FVVEYHGDLIEITDAKKREALYAE [Q24E] = 1.86
• FVVEYHADLIEITDAKKREALYAQ [G7A] = 1.56
• FVVEYHGDLIEITDAKKREALYAL [Q24L] = 1.51
• FVVEYHGDLIEITDAGKREALYAQ [K16G] = 1.51

Incoming: Quick one: protein stability index of FVVEYHGDLIEITDAKKREALYDQ [A23D] ?
Outgoing: 1.79

Incoming: Same thing, different variant: RVVEYHGDLIEITDAKKREALYAQ [F1R]
Outgoing: 3.74

Incoming: Same thing, different variant: KVVEYHGDLIEITDAKKREALYAQ [F1K]
Outgoing: 3.65

Incoming: Same thing, different variant: FVVEYHRDLIEITDAKKREALYAQ [G7R]
Outgoing: 2.76
